Each entry below carries its reported microsomal CLint.
Assay: Apparent intrinsic clearance in human liver microsomes
Assay type: ADME, Microsome
Include the unit after the number when you answer.

Here's what some known entries look like.
[[record]]
molecule = "C[C@@H]1CCN(C(=O)CC#N)C[C@@H]1N(C)c1ncnc2[nH]ccc12"
result = "10 µL/min/mg"

[[record]]
molecule = "CC1CCN(C(=O)C2CCOC2)CC1N(C)c1ncnc2[nH]ccc12 (centres undefined)"
result = "11 µL/min/mg"

[[record]]
molecule = "CC1CCN(C(=O)CS(C)(=O)=O)CC1N(C)c1ncnc2[nH]ccc12 (centres undefined)"
result = "8 µL/min/mg"


I would be grateful if you could share the reported microsomal CLint for CC1CCN(C(=O)CC(F)(F)F)CC1N(C)c1ncnc2[nH]ccc12 (centres undefined) .
16 µL/min/mg

Taken from ChEMBL document CHEMBL1795333.
